FYI, the data here is from ChEMBL document CHEMBL4725294.

# assay.remarks: Stability in rat plasma assessed as parent compound remaining at 10 uM measured after 180 mins by UPLC-MS/MS analysis
# Assay type: ADME, cell-free
# condition.set: read-out: Stabilty
measurement.type: remaining at 3 h, 10 µM (%)
Response body: numeric value in %, unit text excluded.

Q: Quickly give me recorded remaining at 3 h, 10 µM for COc1cc2c(cc1O)CCC(C)(CC(=O)NCCCCCCCCNc1c3c(nc4cc(Cl)ccc14)CCCC3)O2 (stereo unspecified)
Result: 100

* * *

# assay.remarks: Stability in mouse plasma assessed as parent compound remaining at 10 uM measured after 60 mins by UPLC-MS/MS analysis
# Assay type: ADME, cell-free
# condition.set: read-out: Stabilty
measurement.type: remaining at 1 h, 10 µM
The answer consists of two parts: a number and, after it, its unit.

Q: Quickly give me recorded remaining at 1 h, 10 µM for COc1cc2c(cc1O)CCC(C)(CC(=O)NCCCCCCCCNc1c3c(nc4cc(Cl)ccc14)CCCC3)O2 (stereo unspecified)
Result: 100%
